Assay: NCI Yeast Anticancer Drug Screen. Data for the mlh1 rad18 strain (AID 175)
Details: S. cerevisiae mlh1 rad18 strain growth inhibition; at 50.0 µM; stronger effect = higher value
About 79,000 compounds went through this panel and 15% of them were active in at least one assay; those are over-represented in the sample as a whole.
assay readout: growth inhibition (%)
Enter your answer as a number in %; do not include the unit.

growth inhibition recorded for this molecule, O=C(Nc1cc(C(F)(F)F)ccc1Cl)N(Cc1ccccc1)c1ccccc1 , is -8.7

The value of growth inhibition measured for the molecule CCOC(=O)CC1CCC(CCCCC2CCC(CC(=O)OCC)CC2)CC1 (stereo unspecified) turned out to be 45.2

Value of growth inhibition reported for the molecule COc1ccc(NS(=O)c2cccc(C)c2)cc1 (stereo unspecified) is 9.4

CC(=O)OCC1OC(OC(C)=O)C(NC(=S)N(C)N=O)C(OC(C)=O)C1OC(C)=O (stereo unspecified) has a reported growth inhibition of -40.3

Recorded growth inhibition (molecule CCNC(C(=O)O)C1CCCCC1 (stereo unspecified) ): -1.25

So for NC(N)=NC(N)=Nc1ccc2ccccc2c1 , the logged growth inhibition turned out to be 22.6

---

Assay: NCI Yeast Anticancer Drug Screen. Data for the sgs1 mgt1 strain (AID 161);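 further: 0% = growth of cultures given vehicle only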
Conditions: S. cerevisiae sgs1 mgt1 strain, at 50.0 µM, stronger effect = higher value
The panel holds about 79,000 compounds, 15% with a hit somewhere; the sample as a whole holds those more often.
assay readout: growth inhibition (%)
Give the number; % is assumed, so skip it.

response.value for CC(C)c1ccc(C(=O)OCCBr)cc1 (field: growth inhibition) = 16.2

The compound listed as Sc1ccc2ccccc2c1 has a reported growth inhibition of -23.3

growth inhibition in this record for O=C(O)c1c2c(cc3c(=O)c4ccccc4[nH]c13)CCCC2 : 18.7

The compound identified as COc1cc(C2=N/C(=C\c3ccc(Cl)c(Cl)c3)C(=O)O2)cc(OC)c1OC registered its growth inhibition at 24.6

Cc1cc(=O)oc2c(CNC(CC(C)C)C(=O)O)c(O)ccc12 (stereo not drawn) yielded growth inhibition of -46.6

Documented growth inhibition of COCC12CC(CC1=O)C1C2ON2c3ccccc3C(=O)C12c1ccccc1 (stereo not drawn) : 36.8

// sample Cc1ccc(N(C)S(=O)(=O)c2ccc([N+](=O)[O-])cc2)cc1 , its growth inhibition was 29.1

Per the record, Cc1ccc2cccc(CCOC(=O)c3ccc([N+](=O)[O-])cc3)c2c1 has growth inhibition of -15.3

According to the records, this compound Cn1c(=O)c2c(ncn2-c2ccc(N)cn2)n(C)c1=O displays growth inhibition of -7.15

get_value(item= OC(CNc1ccccn1)c1ccccc1 (stereo not drawn) , readout=growth inhibition) returns -35.6

For reference, reported growth inhibition for OC1(C#CC2(O)CCCC2)CCCC1 stands at 15.4

Just so you know, measured growth inhibition for COc1ccc(C(C)Nc2cc(OC)c(OC)c(OC)c2)cc1 (stereo not drawn) came out at -3.15

growth inhibition measured on CCSc1ccc(C)cc1 = -20.8

Record CC1=C(c2cc(C(=O)Nc3cccc(C(F)(F)F)c3)nc(NC#N)n2)Sc2ccccc2N1 , field growth inhibition: -3.2

// growth inhibition value for CCOC(=O)C1CN(C)C(=O)C1=O (stereo not drawn) : 16.6

Measured growth inhibition of CCC(O)C1CCCCC1O (stereo not drawn) : -3.8

The reported value for N#CCCN(C1=NN(C(=O)CC(=O)Nc2ccccc2Cl)C(c2ccccc2)C1)c1ccc(Cl)cc1 (stereo not drawn) in terms of growth inhibition is -10.1

Value of growth inhibition reported for the compound CN(C)CCC(C(N)=O)c1ccccc1 (stereo not drawn) is -3.7

Value of growth inhibition reported for the compound Nc1ccc(N2CCN(c3ccc(N)cc3)CC2)cc1 is 16

Per the records, this compound ( O=C1c2cccc3cccc(c23)C(=O)N1CCO ) has growth inhibition equal to 39.9

Query Nc1nc(N)c(CCCCc2ccc([N+](=O)[O-])cc2)c(N)n1 yields growth inhibition of 24.1

# growth inhibition of CCOC(=O)C(C#N)C1=CC(=O)C(=O)c2ccc(O)cc21 (stereo not drawn) = -1.15

GET /value?item= O=C(O)/C=C/C(=O)Nc1ccc(Cl)cc1C(=O)c1ccccc1 &field=growth inhibition returns 33

GET /value?item= c1ccc(CCc2nc3ccccc3[nH]2)cc1 &field=growth inhibition returns 1.5

compound COc1cc(C#N)cc(OC)c1 , growth inhibition observed: -26.9

Looking up CCCCCCCCCCCCCCCCCC(=O)N/N=C/c1cc(OC)ccc1OC , I see its growth inhibition listed as -0.05

According to the records, this compound CC1CC(C)(C)C(C[NH-])C1[NH-].[Cl][Pt+2][Cl] (stereo not drawn) displays growth inhibition of 34.3

Record Cc1ccc(NC(=O)CC(=O)n2nc(-c3ccccc3)c(N=Nc3ccc(Cl)cc3)c2-c2ccccc2)cc1 . Reported growth inhibition: 13.9
